Assay: Cmax in cynomolgus monkey at 1 mg/kg, po administered as cassette dose by LC-MS/MS analysis
Type: ADME, organism-based, Macaca fascicularis
Design: route oral, dose 1 mg/kg
Conditions: in vivo
Each record is given TRUE if its reported Cmax is strictly below 80 ng/mL. Records at or above 80 ng/mL are given FALSE.

{"molecule": "CCCCN(c1nc2c(C(=O)O)cccc2o1)[C@H](C)c1ccc(-c2ccccc2-c2nnn[nH]2)cc1", "class.name": "FALSE"}
{"molecule": "CCCCN(c1nc2c(CO)cccc2o1)[C@H](C)c1ccc(-c2ccccc2-c2nnn[nH]2)cc1", "class.name": "TRUE"}
{"molecule": "CCCCN(c1nc2c(C(=O)O)cccc2o1)[C@H](C)c1ccc(-c2cc(F)ccc2-c2nc(=O)o[nH]2)cc1", "class.name": "FALSE"}
{"molecule": "CCCCN(c1nc2c(C(=O)N(C)C)cccc2o1)[C@H](C)c1ccc(-c2ccccc2-c2nnn[nH]2)cc1", "class.name": "TRUE"}
{"molecule": "CCCCN(c1nc2c(C(=O)NS(C)(=O)=O)cccc2o1)[C@H](C)c1ccc(-c2ccccc2-c2nnn[nH]2)cc1", "class.name": "TRUE"}
{"molecule": "C[C@H](c1ccc(-c2cc(F)ccc2-c2nc(=O)o[nH]2)cc1)N(CC1CC1)c1nc2c(C(=O)O)cccc2o1", "class.name": "FALSE"}
{"molecule": "CCCCN(c1nc2c(NC(C)=O)cccc2o1)[C@H](C)c1ccc(-c2ccccc2-c2nnn[nH]2)cc1", "class.name": "TRUE"}
{"molecule": "CCCCN(c1nc2c(-c3ccccn3)cccc2o1)[C@H](C)c1ccc(-c2ccccc2-c2nnn[nH]2)cc1", "class.name": "TRUE"}
{"molecule": "CCCCN(c1nc2c(C(=O)NC)cccc2o1)[C@H](C)c1ccc(-c2ccccc2-c2nnn[nH]2)cc1", "class.name": "TRUE"}
{"molecule": "Cc1ccc(-c2nc(=O)o[nH]2)c(-c2ccc([C@@H](C)N(CC3CC3)c3nc4c(C(=O)O)cccc4o3)cc2)c1", "class.name": "FALSE"}
{"molecule": "C[C@H](c1ccc(-c2ccccc2-c2nc(=O)o[nH]2)cc1)N(CC1CC1)c1nc2c(C(=O)O)cccc2o1", "class.name": "FALSE"}
{"molecule": "CCCCN(c1nc2c(NS(C)(=O)=O)cccc2o1)[C@H](C)c1ccc(-c2ccccc2-c2nnn[nH]2)cc1", "class.name": "TRUE"}
{"molecule": "CCCCN(c1nc2c(C(=O)O)cccc2o1)[C@H](C)c1ccc(-c2cc(Cl)ccc2-c2nc(=O)o[nH]2)cc1", "class.name": "FALSE"}
{"molecule": "CCCCN(c1nc2ccccc2o1)[C@H](C)c1ccc(-c2ccccc2-c2nnn[nH]2)cc1", "class.name": "TRUE"}
{"molecule": "C[C@H](c1ccc(-c2cc(Cl)ccc2-c2nc(=O)o[nH]2)cc1)N(CC1CC1)c1nc2c(C(=O)O)cccc2o1", "class.name": "FALSE"}
